Tested on: follistatin
Test: Follistatin mRNA expression in HepG2 cells
Format: cell-based, human
Conditions: Experiment 2, insulin treated: HepG2 cells transfected with oligomeric compound, 1 nM insulin for four hours; UTC + 1 nM insulin = 100
In the oligonucleotide strings, read from the 5' end, every base follows the letter of its sugar. An asterisk marks phosphorothioate; unmarked linkages are phosphodiester. Other units and linkages are bracketed, terminal groups are in braces. A string of capitals states the bases alone. e = 2'-O-(2-methoxyethyl) (MOE); [5mC] = 5-methylcytosine; d = 2'-deoxy (DNA)
Follistatin mRNA expression strictly under 100 means YES; at 100 or over means NO.

Some solved entries appear below for comparison.
{"columns": ["SUBSTANCE", "QUALITATIVE LABEL"],
 "data": [
  ["328649 (eG*eT*eA*eG*eA*dT*dA*dA*d[5mC]*dT*dA*dA*dA*d[5mC]*dA*e[5mC]*eT*eA*e[5mC]*e[5mC]; antisense) [compound 328649]", "YES"],
  ["328343 (eT*e[5mC]*eG*eA*eT*dT*dT*dA*dG*dT*dT*dA*dT*d[5mC]*dT*eA*eA*eA*eA*eA) [compound 328343]", "NO"],
  ["328125 (antisense eT*eA*eT*eG*eA*eA*eA*eT*eG*e[5mC]*e[5mC]*eA*eG*eA*eG*e[5mC]*eT*eG*e[5mC]*e[5mC]*eA) [compound 328125]", "NO"],
  ["327959 (antisense e[5mC]*eA*eG*e[5mC]*e[5mC]*eG*e[5mC]*eT*eG*eT*e[5mC]*eA*e[5mC]*eA*e[5mC]*eG*e[5mC]*eA*e[5mC]*eA*eG) [compound 327959]", "YES"],
  ["327897 (antisense eA*e[5mC]*eA*eG*eG*e[5mC]*e[5mC]*eG*eG*eG*eA*e[5mC]*eA*eA*eG*eT*eG*e[5mC]*eA*eA*eT*eA) [compound 327897]", "NO"],
  ["328764 (antisense eA*eG*eA*eT*eG*dT*dT*dT*d[5mC]*dT*dG*dG*d[5mC]*d[5mC]*dT*eG*e[5mC]*eG*eA*eG) [compound 328764]", "NO"]
]}

INPUT: Given the entry 327923 (antisense eG*eA*eA*eA*eG*eA*eG*eA*e[5mC]*e[5mC]*eG*eG*eT*eT*e[5mC]*eA*e[5mC]*eT*eG*eT*eG*eA) [compound 327923] , would its reported Follistatin mRNA expression be below 100?
OUTPUT: NO

INPUT: For 327958 (antisense e[5mC]*e[5mC]*eG*eG*e[5mC]*eT*eG*e[5mC]*eA*eA*e[5mC]*eA*e[5mC]*eA*eA*eG*eA*e[5mC]*eA*e[5mC]*eG*eA) [compound 327958] , is the recorded Follistatin mRNA expression below the cut-off of 100?
OUTPUT: NO

INPUT: Please indicate whether the reported Follistatin mRNA expression of 327961 (antisense eG*eG*eG*eG*eT*eA*eT*eT*eT*eG*eA*e[5mC]*eA*eA*eA*e[5mC]*eT*eG*eA*e[5mC]*eA) [compound 327961] is strictly below 100.
OUTPUT: NO

INPUT: In plain terms, does 328769 (antisense eA*eG*eG*e[5mC]*eT*dG*dG*dA*d[5mC]*dA*dG*d[5mC]*dA*d[5mC]*dA*e[5mC]*eA*eA*e[5mC]*e[5mC]) [compound 328769] come in under 100 for Follistatin mRNA expression?
OUTPUT: YES
